Tested on: OVCAR3 (ovarian cancer)
Assay: MTS cell viability assay, OVCAR3
Assay type: cell-based
Settings: 72 h
Non-standard residues stand in square brackets, D forms with d. Residues, ends and D or L forms follow the SMILES beside them. Nspe = C[C@H](NCC(=O)O)c1ccccc1; Nphe = O=C(O)CNCc1ccccc1; Nlys = NCCCCNCC(=O)O
Below is a list of entries, each paired with its recorded LC50 OVCAR3 (ovarian cancer) value.

compound | LC50 OVCAR3 (ovarian cancer) [µM]
C[C@@H](c1ccccc1)N(CC(=O)N(CC(=O)N(CCCCN)CC(=O)N(CC(=O)N(CC(=O)N(CCCCN)CC(=O)N(CC(=O)N(CC(=O)N(CCCCN)CC(=O)N(CC(=O)N(CC(N)=O)Cc1ccccc1)Cc1ccccc1)Cc1ccccc1)Cc1ccccc1)Cc1ccccc1)Cc1ccccc1)Cc1ccccc1)C(=O)CNCCCCN [1 achiral-Nspe2, H-NLys-Nspe-Npm-(NLys-Npm-Npm)3-NH2] (H-[Nlys][Nspe][Nphe][Nlys][Nphe][Nphe][Nlys][Nphe][Nphe][Nlys][Nphe][Nphe]-NH2) | 16
C[C@@H](c1ccccc1)N(CC(N)=O)C(=O)CN(C(=O)CN(CCCCN)C(=O)CN(C(=O)CN(C(=O)CN(CCCCN)C(=O)CN(C(=O)CN(C(=O)CN(CCCCN)C(=O)CN(C(=O)CN(C(=O)CNCCCCN)[C@@H](C)c1ccccc1)[C@@H](C)c1ccccc1)[C@@H](C)c1ccccc1)[C@@H](C)c1ccccc1)[C@@H](C)c1ccccc1)[C@@H](C)c1ccccc1)[C@@H](C)c1ccccc1 [Peptoid 1, H-(NLys-Nspe-Nspe)4-NH2] (H-[Nlys][Nspe][Nspe][Nlys][Nspe][Nspe][Nlys][Nspe][Nspe][Nlys][Nspe][Nspe]-NH2) | 6
C[C@@H](c1ccccc1)N(CC(N)=O)C(=O)CN(CCCCN)C(=O)CN(C(=O)CN(C(=O)CN(CCCCN)C(=O)CN(C(=O)CN(C(=O)CN(CCCCN)C(=O)CN(C(=O)CN(C(=O)CNCCCCN)[C@@H](C)c1ccccc1)[C@@H](C)c1ccccc1)[C@@H](C)c1ccccc1)[C@@H](C)c1ccccc1)[C@@H](C)c1ccccc1)[C@@H](C)c1ccccc1 [1 11mer, H-(NLys-Nspe-Nspe)3-NLys-Nspe-NH2] (H-[Nlys][Nspe][Nspe][Nlys][Nspe][Nspe][Nlys][Nspe][Nspe][Nlys][Nspe]-NH2) | 10
C[C@@H](c1ccccc1)N(CC(N)=O)C(=O)CN(C(=O)CN(CCCCN)C(=O)CN(Cc1ccccc1)C(=O)CN(Cc1ccccc1)C(=O)CN(CCCCN)C(=O)CN(C(=O)CN(C(=O)CN(CCCCN)C(=O)CN(Cc1ccccc1)C(=O)CN(Cc1ccccc1)C(=O)CNCCCCN)[C@@H](C)c1ccccc1)[C@@H](C)c1ccccc1)[C@@H](C)c1ccccc1 | 11
C[C@@H](c1ccccc1)N(CC(N)=O)C(=O)CN(Cc1ccccc1)C(=O)CN(CCCCN)C(=O)CN(Cc1ccccc1)C(=O)CN(Cc1ccccc1)C(=O)CN(CCCCN)C(=O)CN(Cc1ccccc1)C(=O)CN(Cc1ccccc1)C(=O)CN(CCCCN)C(=O)CN(Cc1ccccc1)C(=O)CN(C(=O)CNCCCCN)[C@@H](C)c1ccccc1 | 16

---

Below is a list of entries, each paired with its recorded LC50 OVCAR3 (ovarian cancer) value.
Tested on: OVCAR3 (ovarian cancer)
Experiment: MTS cell viability assay, OVCAR3
Format: cell-based
Conditions: 72 h
Non-standard residues stand in square brackets, D forms with d. Residues, ends and D or L forms follow the SMILES beside them. Nspe = C[C@H](NCC(=O)O)c1ccccc1; Nphe = O=C(O)CNCc1ccccc1; Nlys = NCCCCNCC(=O)O

compound | target_or_test_system | scale_unit | sign | LC50 OVCAR3 (ovarian cancer)
C[C@@H](c1ccccc1)N(CC(N)=O)C(=O)CN(CCCCN)C(=O)CN(CCCCN)C(=O)CN(C(=O)CN(C(=O)CN(CCCCN)C(=O)CN(C(=O)CN(CCCCN)C(=O)CN(CCCCN)C(=O)CN(C(=O)CN(C(=O)CNCCCCN)[C@@H](C)c1ccccc1)[C@@H](C)c1ccccc1)[C@@H](C)c1ccccc1)[C@@H](C)c1ccccc1)[C@@H](C)c1ccccc1 [1-NLys5,11, H-(NLys-Nspe-Nspe-NLys-NLys-Nspe)2-NH2] (H-[Nlys][Nspe][Nspe][Nlys][Nlys][Nspe][Nlys][Nspe][Nspe][Nlys][Nlys][Nspe]-NH2) | OVCAR3 (ovarian cancer) | µM | = | 37
CC(C)CN(CC(N)=O)C(=O)CN(CCCCN)C(=O)CN(CC(C)C)C(=O)CN(CC(C)C)C(=O)CN(CCCCN)C(=O)CN(CC(C)C)C(=O)CN(CC(C)C)C(=O)CN(CCCCN)C(=O)CN(CC(C)C)C(=O)CN(CC(C)C)C(=O)CNCCCCN [1 11mer-NLeu, H-(NLys-NLeu-NLeu)3-NLys-NLeu-NH2] | OVCAR3 (ovarian cancer) | µM | > | 100
C[C@@H](c1ccccc1)N(CC(N)=O)C(=O)CN(C(=O)CN(CCCCN)C(=O)CN(C(=O)CN(C(=O)CN(CCCCN)C(=O)CN(C(=O)CN(C(=O)CNCCCCN)[C@@H](C)c1ccccc1)[C@@H](C)c1ccccc1)[C@@H](C)c1ccccc1)[C@@H](C)c1ccccc1)[C@@H](C)c1ccccc1 [1 9mer, H-(NLys-Nspe-Nspe)3-NH2] (H-[Nlys][Nspe][Nspe][Nlys][Nspe][Nspe][Nlys][Nspe][Nspe]-NH2) | OVCAR3 (ovarian cancer) | µM | = | 34
NCCCCNCC(=O)N(CC(=O)N(CC(=O)N(CCCCN)CC(=O)N(CC(=O)N(CC(=O)N(CCCCN)CC(=O)N(CC(=O)N(CC(=O)N(CCCCN)CC(=O)N(CC(=O)N(CC(N)=O)Cc1ccccc1)Cc1ccccc1)Cc1ccccc1)Cc1ccccc1)Cc1ccccc1)Cc1ccccc1)Cc1ccccc1)Cc1ccccc1 [1 achiral, H-(NLys-Npm-Npm)4-NH2] (H-[Nlys][Nphe][Nphe][Nlys][Nphe][Nphe][Nlys][Nphe][Nphe][Nlys][Nphe][Nphe]-NH2) | OVCAR3 (ovarian cancer) | µM | = | 16
